study-system: glucocorticoid receptor (GR) (Homo sapiens)
Sequence (P04150 whole entry, species assumed): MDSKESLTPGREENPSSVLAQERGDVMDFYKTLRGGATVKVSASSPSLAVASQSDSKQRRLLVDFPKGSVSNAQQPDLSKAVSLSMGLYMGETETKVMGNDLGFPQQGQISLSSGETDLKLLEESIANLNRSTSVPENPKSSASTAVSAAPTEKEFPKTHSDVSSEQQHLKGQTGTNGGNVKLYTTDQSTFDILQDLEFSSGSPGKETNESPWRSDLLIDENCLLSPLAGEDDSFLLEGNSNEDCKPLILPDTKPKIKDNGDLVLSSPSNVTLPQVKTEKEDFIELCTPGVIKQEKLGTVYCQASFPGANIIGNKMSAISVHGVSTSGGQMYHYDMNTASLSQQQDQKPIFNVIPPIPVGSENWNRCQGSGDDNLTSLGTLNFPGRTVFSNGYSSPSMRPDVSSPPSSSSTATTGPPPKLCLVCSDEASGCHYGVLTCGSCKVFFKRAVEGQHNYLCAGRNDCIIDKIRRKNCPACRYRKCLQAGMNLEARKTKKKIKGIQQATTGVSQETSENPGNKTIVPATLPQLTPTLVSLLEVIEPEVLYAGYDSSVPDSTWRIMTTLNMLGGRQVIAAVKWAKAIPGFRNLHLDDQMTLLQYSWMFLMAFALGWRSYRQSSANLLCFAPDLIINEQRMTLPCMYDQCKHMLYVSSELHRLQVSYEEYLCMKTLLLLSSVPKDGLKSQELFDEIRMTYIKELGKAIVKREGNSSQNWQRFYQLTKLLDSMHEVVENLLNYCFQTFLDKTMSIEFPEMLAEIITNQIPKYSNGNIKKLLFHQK
assay-overview: Binding to recombinant glucocorticoid receptor, reference [3H]-dexamethasone
applied-conditions: cytosol preparations of Sf9 cells infected with recombinant baculoviruses coding for GR; [3H]-dexamethasone reference
observable: IC50 (nM)
Please respond with the number in nM and leave the unit unwritten.

Notebook: pull reported IC50 for glucocorticoid receptor (GR) (Homo sapiens), entry Cc1ccc2c(NC3c4ccc(F)c5c4C(CCO5)CC3(O)C(F)(F)F)cccc2n1 (mixture of isomers)
20

---

study-system: progesterone receptor (PR) (Homo sapiens, UniProt P06401)
Sequence (P06401 whole entry, species assumed): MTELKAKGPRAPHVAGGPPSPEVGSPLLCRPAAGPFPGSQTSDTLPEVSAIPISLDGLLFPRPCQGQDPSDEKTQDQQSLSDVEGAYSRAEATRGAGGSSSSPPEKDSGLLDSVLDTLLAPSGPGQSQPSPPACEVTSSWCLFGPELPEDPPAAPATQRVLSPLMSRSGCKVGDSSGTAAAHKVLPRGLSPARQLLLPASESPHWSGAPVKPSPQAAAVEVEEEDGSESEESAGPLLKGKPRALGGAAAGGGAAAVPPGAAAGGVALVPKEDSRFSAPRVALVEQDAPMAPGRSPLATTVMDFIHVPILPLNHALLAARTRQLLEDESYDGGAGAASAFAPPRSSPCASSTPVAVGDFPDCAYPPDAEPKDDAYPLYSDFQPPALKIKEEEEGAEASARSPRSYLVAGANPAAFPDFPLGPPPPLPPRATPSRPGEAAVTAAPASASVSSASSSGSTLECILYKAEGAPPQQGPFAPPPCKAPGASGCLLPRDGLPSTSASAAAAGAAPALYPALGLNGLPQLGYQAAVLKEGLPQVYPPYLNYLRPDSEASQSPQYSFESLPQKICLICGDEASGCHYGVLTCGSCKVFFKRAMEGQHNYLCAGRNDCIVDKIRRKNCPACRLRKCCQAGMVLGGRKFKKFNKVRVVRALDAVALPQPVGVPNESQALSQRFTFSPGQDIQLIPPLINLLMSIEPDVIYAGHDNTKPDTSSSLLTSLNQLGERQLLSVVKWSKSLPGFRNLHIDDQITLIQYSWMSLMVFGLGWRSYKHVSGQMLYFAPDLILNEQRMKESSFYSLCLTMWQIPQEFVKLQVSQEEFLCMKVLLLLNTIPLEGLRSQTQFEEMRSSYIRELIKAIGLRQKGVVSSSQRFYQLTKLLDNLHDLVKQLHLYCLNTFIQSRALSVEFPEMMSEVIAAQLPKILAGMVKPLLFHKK
assay-overview: Binding to recombinant progesterone receptor
observable: IC50

Request the reported IC50 associated with Cc1ccc2c(NC3c4ccc(F)c5c4C(CCO5)CC3(O)C(F)(F)F)cccc2n1 (mixture of isomers)
> 1 µM
